Provide the recorded normalized growth for the entries that follow.
# assayInfo: chemical genetic growth profiling, strain panel (AID 1159580);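 also: tested at 20 µM; growth read once vehicle control cultures reached saturation at 30 °C; 1 = growth at the plate median or of vehicle wells; lower values mean less growth of the strain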
# experimentalParameters: S. cerevisiae deletion strains, growth OD, locus YDL192W, strain arf1, active compounds read low
In all, about 5,500 compounds went through this assay and about 2,000 (36%) were called active. Not shown: some 18% with an inconclusive outcome. This is one part of the list.
Could you keep your reply to the number by itself?

normalized growth reading for C[C@@H]1CC[C@@]2(OC1)OC1CC3C4CC=C5C[C@@H](O)CC[C@]5(C)C4CC[C@]3(C)C1[C@@H]2C (stereo partly drawn) : 0.981

normalized growth reading for CC(=O)OCC1=C(C(=O)O)N2C(=O)[C@@H](NC(=O)Cc3cccs3)[C@H]2SC1 : 0.977

normalized growth reading for CC1CC[C@@]2(OC1)O[C@H]1CC3C4CC[C@@H]5CC(=O)CC[C@]5(C)C4CC[C@]3(C)[C@H]1[C@@H]2C (stereo partly drawn) : 1.01

====

# assayInfo: chemical genetic growth profiling, strain panel (AID 1159580);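 also: tested at 20 µM; growth read once vehicle control cultures reached saturation at 30 °C; 1 = growth at the plate median or of vehicle wells; lower values mean less growth of the strain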
# experimentalParameters: S. cerevisiae deletion strains, growth OD, locus YOR265W, strain rbl2
Among all 5,500 compounds or so, about 2,000 (36%) were called active. Another 18% or so got no clear call; they are omitted. Rule as the data show it: active = normalized growth mostly below about 0.91 (no sharp cut-off); inconclusive = no clear call, values can overlap the other calls; inactive = mostly above about 0.92. This is one part of the list.
Respond only with the outcome that fits, drawn from 1.0 for active, 0.0 for inactive

input: Look up the recorded call for CCOCN(C(=O)CCl)c1c(C)cccc1CC in this test.
output: 0.0

input: Look up the recorded call for CC(C)c1c(O)ccc2c1CCC1[C@@](C)(CO)CCC[C@]21C (stereo partly specified) in this test.
output: 0.0

input: Look up the recorded call for CCOC(=O)c1c(C)cc(OC)cc1O in this test.
output: 0.0

input: Look up the recorded call for CC(=O)Oc1ccc2c(c1C(C)C)CCC1C(C)(C)CCC[C@]21C (stereo partly specified) in this test.
output: 0.0

input: Look up the recorded call for COC(=O)c1c(C)cc(OC)cc1O in this test.
output: 0.0

input: Look up the recorded call for CC(C1OC(C)(C)C(O)C1O)[C@@H]1CC[C@]2(C)C3=CCC4C(C)(C)C(=O)CC[C@]4(C)C3CC[C@@]12C (stereo partly specified) in this test.
output: 0.0

input: Look up the recorded call for NC(=O)c1ncn([C@@H]2O[C@H](CO)[C@@H](O)[C@H]2O)n1 in this test.
output: 0.0

input: Look up the recorded call for CCC1OC(=O)[C@H](C)C(=O)[C@H](C)[C@@H](OC2O[C@H](C)C[C@H](N(C)C)[C@H]2O)[C@](C)(OC)C2(CCCn3cnc(-c4cccnc4)c3)C[C@@H](C)C(=O)[C@H](C)[C@H]3N(C2)C(=O)O[C@]13C (stereo partly specified) in this test.
output: 0.0

input: Look up the recorded call for CC(C)(C)NCC(O)c1cc(Cl)c(N)c(Cl)c1 (stereo unspecified) in this test.
output: 0.0

input: Look up the recorded call for CN[C@@H]1[C@@H](O)C(OC2[C@@H](N)C[C@@H](N)[C@H](O[C@H]3O[C@H](C(C)O)[C@@H](O)[C@H](O)[C@H]3N)[C@H]2O)OC[C@]1(C)O (stereo partly specified) in this test.
output: 0.0

input: Look up the recorded call for C[C@@H]1O[C@@H](OC[C@H]2OC(Oc3c(-c4ccc(OCCO)c(OCCO)c4)oc4cc(OCCO)cc(O)c4c3=O)[C@H](O)[C@@H](O)[C@@H]2O)[C@H](O)[C@H](O)[C@H]1O (stereo partly specified) in this test.
output: 0.0

input: Look up the recorded call for O=C(O[C@@H]1Cc2c(O)cc(O)cc2O[C@@H]1c1cc(O)c(=O)c2c(O)c(O)cc([C@H]3Oc4cc(O)cc(O)c4C[C@H]3OC(=O)c3cc(O)c(O)c(O)c3)c2c1)c1cc(O)c(O)c(O)c1 in this test.
output: 1.0

input: Look up the recorded call for Cc1cc(OC(=O)c2c(C)cc(O)cc2O)cc(O)c1C(=O)O in this test.
output: 0.0

input: Look up the recorded call for COc1cc(OC)c2c(=O)c(O)c(-c3ccc(OC)c(OC)c3)oc2c1 in this test.
output: 0.0

input: Look up the recorded call for CCOC(=O)c1c(C)cc(O)cc1O in this test.
output: 1.0

input: Look up the recorded call for COc1ccc2c(c1)CCC1C2CCC2(C)C1C[C@@H](O)C2O (stereo partly specified) in this test.
output: 0.0

input: Look up the recorded call for COc1ccc(-c2oc3c(CC=C(C)C)c(O[C@@H]4O[C@H](CO)[C@@H](O)[C@H](O)[C@H]4O)cc(O)c3c(=O)c2O[C@@H]2O[C@@H](C)[C@H](O)[C@@H](O)[C@H]2O)cc1 in this test.
output: 0.0

input: Look up the recorded call for O=c1ccc2cc(OC3OC(CO)C(O)C(O)C3O)c(O)cc2o1 (stereo unspecified) in this test.
output: 0.0

input: Look up the recorded call for CCC(=O)c1c(O)cc(O)cc1O in this test.
output: 0.0

input: Look up the recorded call for C[C@]12CCC3c4ccc(OS(=O)(=O)O)cc4CCC3C1CC[C@H]2O (stereo partly specified) in this test.
output: 0.0

input: Look up the recorded call for CCCCCC(=O)Cc1cc(O)cc(O)c1C(=O)Oc1cc(CC(=O)CCCCC)c(C(=O)O)c(OC)c1 in this test.
output: 1.0

input: Look up the recorded call for CN1C[C@H](C(=O)N[C@]2(C)O[C@@]3(O)[C@@H]4CCCN4C(=O)[C@H](Cc4ccccc4)N3C2=O)C[C@@H]2c3cccc4[nH]cc(c34)C[C@H]21 in this test.
output: 0.0

input: Look up the recorded call for C=C(C)[C@H]1COc2cc3oc(=O)ccc3cc2O1 in this test.
output: 1.0

input: Look up the recorded call for COc1cc(OC)c2c(=O)c(OC)c(-c3ccc(OC)c(OC)c3)oc2c1 in this test.
output: 0.0

input: Look up the recorded call for CC(C)c1c(O)ccc2c1CCC1[C@@](C)(C=O)CCC[C@]21C (stereo partly specified) in this test.
output: 1.0

input: Look up the recorded call for O=C(OC1Cc2c(O)cc(O)cc2OC1c1cc(=O)c(O)c2c(O)c(O)cc(C3Oc4cc(O)cc(O)c4CC3O)c2c1)c1cc(O)c(O)c(O)c1 (stereo unspecified) in this test.
output: 0.0

input: Look up the recorded call for C[C@]12CCC3c4ccc(O)cc4CCC3C1C[C@@H](O)[C@@H]2O (stereo partly specified) in this test.
output: 0.0

input: Look up the recorded call for CCN(Cc1ccncc1)C(=O)C(CO)c1ccccc1 (stereo unspecified) in this test.
output: 0.0

input: Look up the recorded call for CC1CCC2(OC1)OC1CC3C4CC[C@H]5C[C@@H](O)CC[C@]5(C)C4CC(=O)[C@]3(C)C1C2C (stereo partly specified) in this test.
output: 0.0

input: Look up the recorded call for C[C@@H]1CC[C@@]2(OC1)OC1CC3C4CC=C5C[C@@H](O)CC[C@]5(C)C4CC[C@]3(C)C1[C@@H]2C (stereo partly specified) in this test.
output: 0.0

input: Look up the recorded call for CC1CC[C@@]2(OC1)O[C@H]1CC3C4CC[C@@H]5C[C@@H](O)CC[C@]5(C)C4CC[C@]3(C)[C@H]1[C@@H]2C (stereo partly specified) in this test.
output: 0.0

input: Look up the recorded call for OC1CC2CCCC(C1)N2Cc1ccccc1 (stereo unspecified) in this test.
output: 0.0

input: Look up the recorded call for CCC(N)C(O)c1ccc(O)c(O)c1 (stereo unspecified) in this test.
output: 0.0

input: Look up the recorded call for O=C1[O][Bi][O]c2ccccc21 in this test.
output: 0.0

input: Look up the recorded call for COC(=O)[C@@]1(C)CCC[C@]2(C)c3ccc(O)c(C(C)C)c3CCC12 (stereo partly specified) in this test.
output: 1.0

input: Look up the recorded call for CCN[C@@H]1C[C@H](N)[C@@H](O[C@H]2OC(CN)=CC[C@H]2N)[C@H](O)[C@H]1OC1OC[C@](C)(O)[C@H](NC)[C@H]1O (stereo partly specified) in this test.
output: 0.0

====

# assayInfo: chemical genetic growth profiling, strain panel (AID 1159580);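 also: tested at 20 µM; growth read once vehicle control cultures reached saturation at 30 °C; 1 = growth at the plate median or of vehicle wells; lower values mean less growth of the strain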
# experimentalParameters: S. cerevisiae deletion strains, growth OD, locus YFR010W, strain ubp6, active compounds read low
About 2,000 (36%) of roughly 5,500 compounds were called active. Roughly 18% stayed inconclusive and do not appear here. The list shows a part of the results.
measuredAttribute: normalized growth
Could you keep your reply to the number by itself?

normalized growth reading for NC(=O)NCCCC(N)C(=O)O (stereo unspecified) : 0.982

normalized growth reading for O=C(Cc1cccs1)NC1C(=O)N2C(C(=O)[O-])=C(C[n+]3ccccc3)CSC12 (stereo unspecified) : 0.986

normalized growth reading for CC(=O)OC(C)C[N+](C)(C)C (stereo unspecified) : 0.989

normalized growth reading for C=C[C@H]1CN2CC[C@H]1C[C@@H]2[C@@H](OC(=O)OCC)c1ccnc2ccc(OC)cc12 : 1

normalized growth reading for NS(=O)(=O)c1cc(C2(O)NC(=O)c3ccccc32)ccc1Cl (stereo unspecified) : 0.982

normalized growth reading for C[C@]12C=CC(=O)C=C1CCC1C2[C@@H](O)C[C@@]2(C)C1CC[C@]2(O)C(=O)COP(=O)(O)O (stereo partly specified) : 1.01
